- experimental target: D(2) dopamine receptor/Metabotropic glutamate receptor 5 (Homo sapiens, UniProt P14416+P41594)
- Sequence (P14416 whole entry): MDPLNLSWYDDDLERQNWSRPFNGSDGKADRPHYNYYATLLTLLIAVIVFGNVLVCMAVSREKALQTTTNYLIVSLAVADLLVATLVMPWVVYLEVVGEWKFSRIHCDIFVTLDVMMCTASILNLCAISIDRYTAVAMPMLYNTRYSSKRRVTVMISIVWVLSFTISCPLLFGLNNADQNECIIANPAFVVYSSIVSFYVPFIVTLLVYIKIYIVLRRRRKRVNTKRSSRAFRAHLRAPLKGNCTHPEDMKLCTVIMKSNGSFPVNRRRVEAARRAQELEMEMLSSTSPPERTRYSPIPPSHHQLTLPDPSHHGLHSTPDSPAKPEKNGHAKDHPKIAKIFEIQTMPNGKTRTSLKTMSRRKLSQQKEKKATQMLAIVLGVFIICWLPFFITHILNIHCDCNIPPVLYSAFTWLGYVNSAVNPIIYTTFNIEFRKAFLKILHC
- Sequence (P41594 whole entry): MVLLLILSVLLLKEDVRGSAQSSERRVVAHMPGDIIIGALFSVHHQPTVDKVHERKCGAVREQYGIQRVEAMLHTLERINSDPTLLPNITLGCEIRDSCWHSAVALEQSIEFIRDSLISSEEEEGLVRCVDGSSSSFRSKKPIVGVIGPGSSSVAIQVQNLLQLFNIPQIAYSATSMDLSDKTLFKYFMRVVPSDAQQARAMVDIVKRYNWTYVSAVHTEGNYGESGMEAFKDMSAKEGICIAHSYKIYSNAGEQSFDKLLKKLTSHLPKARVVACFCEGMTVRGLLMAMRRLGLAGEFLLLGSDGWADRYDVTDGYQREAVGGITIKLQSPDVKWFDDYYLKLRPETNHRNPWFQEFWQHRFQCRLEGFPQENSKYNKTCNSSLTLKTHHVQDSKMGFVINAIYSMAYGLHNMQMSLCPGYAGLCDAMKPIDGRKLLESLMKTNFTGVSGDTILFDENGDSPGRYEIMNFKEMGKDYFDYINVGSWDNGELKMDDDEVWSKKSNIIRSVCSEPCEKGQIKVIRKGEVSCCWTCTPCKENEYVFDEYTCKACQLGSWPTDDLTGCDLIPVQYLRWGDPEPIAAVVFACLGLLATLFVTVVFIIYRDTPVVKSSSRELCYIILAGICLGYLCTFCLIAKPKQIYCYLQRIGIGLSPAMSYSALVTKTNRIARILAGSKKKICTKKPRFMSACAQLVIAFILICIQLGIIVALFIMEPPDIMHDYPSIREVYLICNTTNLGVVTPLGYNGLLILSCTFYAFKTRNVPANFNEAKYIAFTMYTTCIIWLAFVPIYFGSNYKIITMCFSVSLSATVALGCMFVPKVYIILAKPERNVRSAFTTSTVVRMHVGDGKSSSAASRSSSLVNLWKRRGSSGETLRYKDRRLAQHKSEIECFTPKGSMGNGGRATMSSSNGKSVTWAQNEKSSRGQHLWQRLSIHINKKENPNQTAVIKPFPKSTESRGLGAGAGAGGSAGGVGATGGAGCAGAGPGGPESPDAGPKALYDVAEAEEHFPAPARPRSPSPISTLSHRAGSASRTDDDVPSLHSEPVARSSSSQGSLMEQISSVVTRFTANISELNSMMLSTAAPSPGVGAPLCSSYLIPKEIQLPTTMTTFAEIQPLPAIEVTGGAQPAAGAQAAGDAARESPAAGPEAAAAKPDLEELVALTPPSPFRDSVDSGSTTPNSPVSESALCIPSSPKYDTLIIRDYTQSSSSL
- experimental protocol: Agonist activity at human dopamine D2 receptor /mGluR5a (unknown origin) expressed in HEK293T cells assessed as reduction in forskolin-induced cAMP accumulation preincubated for 15 mins followed by forskolin addition by GloSensor-based assay
- Type: functional, cell-based
- condition summary: read-out: EC50
pEC50: −log10 of the molar value.
assay readout: pEC50

Field: example entries. Status: answers known.
>  <molecule>
CCCN(CCc1ccc(NC(=O)CCc2cn(CCCCCCCCN(C)CCCCCNC(=O)COc3cncc(C#Cc4csc(C)n4)c3)nn2)cc1)C1CCc2c(O)cccc2C1 (centres undefined)

>  <reported value>
8.82

$$$$
>  <molecule>
CCCN(CCc1ccc(NC(=O)CCc2cn(CCCCCCCCCCN(C)CCCCCNC(=O)COc3cncc(C#Cc4csc(C)n4)c3)nn2)cc1)C1CCc2c(O)cccc2C1 (centres undefined)

>  <reported value>
7.49

$$$$

a: CCCN(CCc1ccc(NC(=O)CCc2cn(CCCCCCNC(=O)COc3cncc(C#Cc4csc(C)n4)c3)nn2)cc1)C1CCc2c(O)cccc2C1 (centres undefined)
b: C#CCCC(=O)Nc1ccc(CCN(CCC)C2CCc3c(O)cccc3C2)cc1 (centres undefined)
IN: Sort a and b by pEC50 descending and give the first. I would appreciate it if you answered with the label of your choice.
OUT: b
